biological target: human DGKζ (Homo sapiens, UniProt Q13574); construct: TVMV protease cleavage site (C); Hexa-His (C); made in house; host or cells: Sf9 insect cells (baculovirus, Bac-to-Bac); assay: DGKζ LIPGLO assay (extruded liposome substrate), in vitro DGK inhibition; type: biochemical; conditions: liposome (LIPGLO) assay; read-out: DGKz LIPGLO IC50
Sequence (Q13574 with tags, fused parts or gaps isoform Q13574-4): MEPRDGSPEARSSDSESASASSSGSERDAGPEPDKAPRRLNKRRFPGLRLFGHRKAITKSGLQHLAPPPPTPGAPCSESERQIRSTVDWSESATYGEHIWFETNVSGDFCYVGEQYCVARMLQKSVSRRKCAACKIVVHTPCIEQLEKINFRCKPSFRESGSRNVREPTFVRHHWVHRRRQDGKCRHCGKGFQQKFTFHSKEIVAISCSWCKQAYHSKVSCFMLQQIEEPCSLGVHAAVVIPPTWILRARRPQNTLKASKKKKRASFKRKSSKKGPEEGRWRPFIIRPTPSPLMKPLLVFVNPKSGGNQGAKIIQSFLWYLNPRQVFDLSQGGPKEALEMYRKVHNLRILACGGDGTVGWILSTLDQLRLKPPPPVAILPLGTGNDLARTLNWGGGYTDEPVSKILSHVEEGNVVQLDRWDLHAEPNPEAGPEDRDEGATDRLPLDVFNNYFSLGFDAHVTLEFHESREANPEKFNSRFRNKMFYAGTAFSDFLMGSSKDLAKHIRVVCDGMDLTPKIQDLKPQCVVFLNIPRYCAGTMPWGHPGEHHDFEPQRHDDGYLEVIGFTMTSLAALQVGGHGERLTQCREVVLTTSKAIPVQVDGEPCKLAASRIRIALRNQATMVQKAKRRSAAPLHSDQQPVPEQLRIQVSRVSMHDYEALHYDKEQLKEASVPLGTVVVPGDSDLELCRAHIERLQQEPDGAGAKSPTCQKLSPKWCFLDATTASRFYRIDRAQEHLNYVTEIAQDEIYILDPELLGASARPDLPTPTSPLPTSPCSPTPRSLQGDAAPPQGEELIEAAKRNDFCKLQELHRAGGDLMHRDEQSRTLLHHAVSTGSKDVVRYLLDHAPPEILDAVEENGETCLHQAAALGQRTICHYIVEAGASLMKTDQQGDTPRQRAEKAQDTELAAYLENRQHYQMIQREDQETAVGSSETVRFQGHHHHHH
measuredParameter: IC50 (nM)

[[record]]
molecule = "CC[C@H]1CN(C(c2ccc(F)cc2)c2ccc(C#N)cc2)[C@H](C)CN1c1cc(=O)n(C)c2ccc(C#N)nc12 (stereo partly drawn) [Example 1123]"
testedsystem = "human DGKζ (Homo sapiens, UniProt Q13574)"
numericvalue = 4700

[[record]]
molecule = "CCC(c1cc(Cl)cc2c1OCC2)N1C[C@H](C)N(c2cc(=O)n(C)c3ccc(C#N)nc23)C[C@H]1C (single isomer, unassigned) [Example 356]"
testedsystem = "human DGKζ (Homo sapiens, UniProt Q13574)"
numericvalue = 420

[[record]]
molecule = "CC[C@H]1CN(C(c2ccc(F)cc2)c2ccc(C#N)cc2)[C@H](CC)CN1c1cc(=O)n(C)c2ccc(C#N)nc12 (stereo partly drawn) [Example 1036]"
testedsystem = "human DGKζ (Homo sapiens, UniProt Q13574)"
numericvalue = 520


[I] C[C@@H]1CN(c2cc(=O)n(C)c3ccc(C#N)nc23)[C@@H](C)CN1C(COC(F)F)c1ccc(F)cc1 (single isomer, unassigned) [Example 1189]
[II] C[C@@H]1CN(c2cc(=O)n(C)c3ccc(C#N)nc23)[C@@H](C)CN1C(c1ccc(F)cc1)c1ccc(Cl)cc1 (single isomer, unassigned) [Example 302]
[III] CC[C@H]1CN(C(c2ccc(F)cc2)c2ccccn2)[C@H](CC)CN1c1cc(=O)n(C)c2ccc(C#N)nc12 (single isomer, unassigned) [Example 1043]
// ascending sort on recorded IC50 Form field (ranking): labels in requested order.
III, II, I

[A] CC[C@H]1CN(C(C)c2ccc(OC(F)F)cc2)[C@H](C)CN1c1cc(=O)n(C)c2ccc(C#N)nc12 (single isomer, unassigned) [Example 1145]
[B] CC(c1cccc(OC(F)F)c1)N1C[C@H](C)N(c2cc(=O)n(C)c3ccc(C#N)nc23)C[C@H]1C (single isomer, unassigned) [Example 1271]
[C] CC[C@H]1CN(C(C)c2ccc(OC(F)(F)F)cc2)[C@H](COC)CN1c1cc(=O)n(C)c2ccc(C#N)nc12 (single isomer, unassigned) [Example 1408]
[D] CC[C@@H]1CN(c2cc(=O)n(C)c3ccc(C#N)nc23)[C@@H](C)CN1C(c1ccc(Cl)cc1)c1ccccn1 (single isomer, unassigned) [Example 423]
// ascending sort on recorded IC50 Form field (ranking): labels in requested order.
B, C, D, A

[1] Cc1cccc(C(c2ccc(F)cc2)N2C[C@H](C)N(c3cc(=O)n(C)c4ccc(C#N)nc34)C[C@H]2C)n1 (single isomer, unassigned) [Example 203]
[2] COC[C@@H]1CN(c2cc(=O)n(C)c3ccc(C#N)nc23)[C@@H](C)CN1C(c1ccc(F)cc1)c1ccc(F)cc1
Please let me know which one, 1 or 2 , has a lower measured IC50 value. Answer = label.
1
(1: 29 nM, 2: 660 nM)

###

target: human DGKζ (Homo sapiens, UniProt Q13574); construct: TVMV protease cleavage site (C); Hexa-His (C); made in house; host or cells: Sf9 insect cells (baculovirus, Bac-to-Bac); assay: DGKζ LIPGLO assay (extruded liposome substrate), in vitro DGK inhibition; assay type: biochemical; details: liposome (LIPGLO) assay; read-out: DGKz LIPGLO IC50
measuredParameter: IC50 (nM)

[[record]]
molecule = "CC[C@@H]1CN(c2cc(=O)n(C)c3ccc(C#N)nc23)[C@@H](C)CN1C(C)c1ccc(F)cc1F (single isomer, unassigned) [Example 1087]"
measuredparameter = "IC50"
numericvalue = 86


[a] COC(=O)C1CN(C(c2ccc(F)cc2)c2ccc(F)cc2)CCN1c1c(C#N)c(=O)n(C)c2ccc(Br)nc12 (stereo not drawn) [Example 115]
[b] C[C@@H]1CN(c2cc(=O)n(C)c3ccc(C#N)nc23)[C@@H](C)CN1C(c1ccc(F)cc1)c1ccc(C(F)F)cc1 (single isomer, unassigned) [Example 666]
[c] CC[C@H]1CN(C(C)c2ccc(F)c(F)c2)[C@H](C)CN1c1cc(=O)n(C)c2ccc(C#N)nc12 (single isomer, unassigned) [Example 1140]
[d] COC[C@@H]1CN(c2cc(=O)n(C)c3ccc(C#N)nc23)[C@@H](C)CN1C(c1ccc(C)cc1)c1ccc(C)cc1 [Example 1156]
// ascending sort on recorded IC50 Form field (ranking): labels in requested order.
d, c, b, a

###

molecular target: human DGKα (Homo sapiens, UniProt P23743); construct: TVMV protease cleavage site (C); Hexa-His (C); made in house; host or cells: Sf9 insect cells (baculovirus, Bac-to-Bac); experiment: DGKα LIPGLO assay (extruded liposome substrate), in vitro DGK inhibition; format: biochemical; conditions: liposome (LIPGLO) assay; read-out: DGKa LIPGLO IC50
Sequence (P23743 with tags, fused parts or gaps): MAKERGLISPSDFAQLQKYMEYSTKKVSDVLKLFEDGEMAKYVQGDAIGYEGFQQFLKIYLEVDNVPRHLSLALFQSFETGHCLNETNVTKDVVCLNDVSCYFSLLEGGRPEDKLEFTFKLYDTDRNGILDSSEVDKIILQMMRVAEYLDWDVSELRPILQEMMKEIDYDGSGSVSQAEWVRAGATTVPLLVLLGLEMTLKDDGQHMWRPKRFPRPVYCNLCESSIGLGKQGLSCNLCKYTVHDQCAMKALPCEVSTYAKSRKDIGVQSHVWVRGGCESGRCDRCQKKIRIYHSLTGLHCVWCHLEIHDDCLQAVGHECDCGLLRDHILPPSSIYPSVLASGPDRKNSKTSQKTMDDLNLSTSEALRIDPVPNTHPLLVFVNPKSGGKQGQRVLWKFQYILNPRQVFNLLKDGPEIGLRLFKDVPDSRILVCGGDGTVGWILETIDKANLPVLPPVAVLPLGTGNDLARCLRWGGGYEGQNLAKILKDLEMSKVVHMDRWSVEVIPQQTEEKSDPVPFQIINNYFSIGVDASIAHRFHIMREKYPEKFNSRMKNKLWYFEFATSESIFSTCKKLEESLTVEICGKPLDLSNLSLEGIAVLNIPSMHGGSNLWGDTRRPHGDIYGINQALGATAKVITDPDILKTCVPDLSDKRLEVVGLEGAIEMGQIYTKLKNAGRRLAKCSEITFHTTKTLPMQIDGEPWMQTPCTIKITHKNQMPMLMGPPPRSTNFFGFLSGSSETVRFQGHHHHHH
pIC50: −log10 of the molar value.
measuredParameter: pIC50

[[record]]
compound = "CCC(c1ccc(OC(F)(F)F)cc1F)N1C[C@H](C)N(c2cc(=O)n(C)c3ccc(C#N)nc23)C[C@H]1C (single isomer, unassigned) [Example 441]"
numericvalue = 5.82


[1] C[C@@H]1CN(c2cc(=O)n(C)c3ccc(C#N)nc23)[C@@H](C)CN1C(c1ccc(Cl)cc1)c1ccc(F)c2c1OC(C)(C)C2 (single isomer, unassigned) [Example 458]
[2] COC(=O)C1CN(c2cc(=O)n(C)c3ccc(C#N)nc23)CCN1C(c1ccc(Cl)cc1)c1ccc(Cl)cc1 (single isomer, unassigned) [Example 97]
[3] C[C@@H]1CN(c2c(C#N)c(=O)n(C)c3ccc(C#N)nc23)CCN1C(c1ccc(F)cc1)c1cncnc1 (stereo partly drawn) [Example 317]
[4] C[C@@H]1CN(c2cc(=O)n(C)c3ccc(C#N)nc23)[C@@H](C)CN1Cc1cnoc1
[5] CC[C@H]1CN(C(C)c2ccc(OC)cc2)[C@H](CC)CN1c1cc(=O)n(C)c2ccc(C#N)nc12 (single isomer, unassigned) [Example 1367]
// ascending sort on recorded pIC50 Form field (ranking): labels in requested order.
4, 2, 3, 1, 5

###

molecular target: human DGKζ (Homo sapiens); construct: TVMV protease cleavage site (C); Hexa-His (C); made in house; host or cells: Sf9 insect cells (baculovirus, Bac-to-Bac); assay: DGKζ LIPGLO assay (extruded liposome substrate), in vitro DGK inhibition; type: biochemical; details: liposome (LIPGLO) assay; read-out: DGKz LIPGLO IC50
measuredParameter: IC50 (µM)

[I] C[C@@H]1CN(c2cc(=O)n(C)c3ccc(C#N)nc23)[C@@H](C)CN1Cc1cccc(F)c1F
[II] C[C@@H]1CN(c2cc(=O)n(C)c3ccc(C#N)nc23)[C@@H](C)CN1C(CF)c1ccc(F)cc1 (mixture of isomers)
Please let me know which one, I or II , has a lower measured IC50 value. Answer = label.
I
(I: 3.2 µM, II: 6 µM)

[a] C[C@@H]1CN(c2cc(=O)n(C)c3ccc(C#N)nc23)[C@@H](C)CN1C(c1ccc(F)cc1)c1ncccn1 (stereo partly shown) [Example 677]
[b] CC[C@@H]1CN(c2c(C#N)c(=O)n(C)c3ccc(C#N)nc23)CCN1C(c1ccc(F)cc1)c1ccc(F)cc1
Please let me know which one, a or b , has a lower measured IC50 value. Answer = label.
b

[a] CC[C@@H]1CN(c2c(C#N)c(=O)n(C)c3ccc(C#N)nc23)CCN1C(c1ccc(Cl)cc1)c1ccc(Cl)cc1
[b] CC(c1ccc(OC(F)(F)F)cc1)N1C[C@H](C)N(c2cc(=O)n(C)c3ccc(C#N)nc23)C[C@H]1CN(C)C (single isomer, unassigned) [Example 1414]
Pick one: a or b . Which has the bigger IC50 number? Answer = label.
b

###

biological target: human DGKζ (Homo sapiens); construct: TVMV protease cleavage site (C); Hexa-His (C); made in house; host or cells: Sf9 insect cells (baculovirus, Bac-to-Bac); assay: DGKζ LIPGLO assay (extruded liposome substrate), in vitro DGK inhibition; format: biochemical; conditions: DGKζ liposome (LIPGLO) assay; read-out: DGKz LIPGLO IC50
measuredParameter: IC50 (µM)

[[record]]
compound = "C[C@@H]1CN(c2c(C#N)c(=O)n(C)c3ccc(C#N)nc23)CCN1Cc1ccc(F)c(F)c1 [Example 987]"
testedsystem = "human DGKζ (Homo sapiens)"
measuredparameter = "IC50"
numericvalue = 1.8

[[record]]
compound = "C[C@@H]1CN(c2c(C#N)c(=O)n(C)c3ccc(C#N)nc23)[C@@H](C)CN1C(c1ccc(Cl)cc1)c1ccc(F)cn1 (single isomer, unassigned) [Example 829]"
testedsystem = "human DGKζ (Homo sapiens)"
measuredparameter = "IC50"
numericvalue = 8

[[record]]
compound = "Cc1cc(C(C)N2C[C@H](C)N(c3c(C#N)c(=O)n(C)c4ccc(C#N)nc34)C[C@H]2C)no1 (single isomer, unassigned) [Example 804]"
testedsystem = "human DGKζ (Homo sapiens)"
measuredparameter = "IC50"
numericvalue = 32

[[record]]
compound = "C[C@@H]1CN(c2c(C#N)c(=O)n(C)c3ccc(C#N)nc23)[C@@H](C)CN1C(c1ccccc1)c1ccc(F)cc1 (stereo partly drawn) [Example 808]"
testedsystem = "human DGKζ (Homo sapiens)"
measuredparameter = "IC50"
numericvalue = 1.6

[[record]]
compound = "Cc1ccc(C(c2ccc(F)cc2)N2C[C@H](C)N(c3c(C#N)c(=O)n(C)c4ccc(C#N)nc34)C[C@H]2C)cc1 (stereo partly drawn) [Example 818]"
testedsystem = "human DGKζ (Homo sapiens)"
measuredparameter = "IC50"
numericvalue = 7.3


[P] C[C@@H]1CN(c2c(C#N)c(=O)n(C)c3ccc(C#N)nc23)CCN1C(c1ccc(F)cc1)c1ccc(C(F)(F)F)cc1 (single isomer, unassigned) [Example 910]
[Q] Cc1cccc(C(c2ccc(F)cc2)N2CCN(c3c(C#N)c(=O)n(C)c4ccc(C#N)nc34)C[C@H]2C)n1 (single isomer, unassigned) [Example 906]
Pick one: P or Q . Which has the bigger IC50 number? Answer = label.
P

[I] Cc1ccc(C(c2ccc(F)cn2)N2CCN(c3c(C#N)c(=O)n(C)c4ccc(C#N)nc34)C[C@H]2C)cc1 (stereo partly drawn) [Example 898]
[II] COc1ccc(C(C)N2C[C@H](C)N(c3c(C#N)c(=O)n(C)c4ccc(C#N)nc34)C[C@H]2C)nc1 (single isomer, unassigned) [Example 799]
Pick one: I or II . Which has the bigger IC50 number? Answer = label.
II

[A] Cc1cccc(C(c2ccc(F)cc2)N2CCN(c3c(C#N)c(=O)n(C)c4ccc(C#N)nc34)C[C@H]2C)n1 (single isomer, unassigned) [Example 905]
[B] CC(c1ccc(C#N)cc1)N1CCN(c2c(C#N)c(=O)n(C)c3ccc(C#N)nc23)C[C@H]1C (stereo partly drawn) [Example 955]
[C] CC(c1ccc(Cl)cc1)N1C[C@H](C)N(c2c(C#N)c(=O)n(C)c3ccc(C#N)nc23)C[C@H]1C (single isomer, unassigned) [Example 791]
Reorder: IC50, max to min. Form field (ranking): labels in requested order.
C, B, A
(C: 5.7 µM, B: 3 µM, A: 1.2 µM)
